test system: MALME-3M melanoma; test: NCI tumour cell line growth inhibition, 48 h
Measured property: GI50

>>> observed_measurement("O=c1c(F)cn(Cc2ccccc2CCl)c(=O)n1Cc1ccccc1CCl")
"2.2 µM"
>>> observed_measurement("CC(C)(C)C(=O)[CH-]C(=O)C(C)(C)C.CC(C)(C)C(=O)[CH-]C(=O)C(C)(C)C.CN(C)c1ccc([O-])cc1.CN(C)c1ccc([O-])cc1.[Ti+4]")
"> 100 µM"
>>> observed_measurement("C=C(CN(C)C)C(=O)c1ccccc1[N+](=O)[O-]")
"4.74 µM"
>>> observed_measurement("Cc1cc(I)cc(CN(C)CCCN2CCCC2)c1O")
"16.6 µM"
>>> observed_measurement("O=C1CCCCN1CCCCC#Cc1cccc(C#Cc2cccnc2)c1")
"21.7 µM"
>>> observed_measurement("COc1ccc(C(=O)c2ccc([As]=O)cc2)cc1 (centres undefined)")
"0.0281 µM"
>>> observed_measurement("C=C1C(=O)O[C@H]2[C@H]1CC/C(C=Nc1c(N)cc(C(F)(F)F)cc1Br)=C\\CC[C@@]1(C)O[C@@H]21")
"1.71 µM"
>>> observed_measurement("O=C(N[C@@H](C[Se][Se]C[C@H](NC(=O)c1ccc(Br)cc1F)C(=O)O)C(=O)O)c1ccc(Br)cc1F")
"> 100 µM"
>>> observed_measurement("COC(=O)C1(C)Cc2cc(OC(C)=O)c(OC(C)=O)cc2N1 (centres undefined)")
"3.18 µM"
